Catalogue of compounds with associated EC50
Test system: RS4;11 cells
experiment.notes: RS4;11 cell viability assay (CellTiter Glo);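 further: acute lymphoblastic leukemia line RS4,11, EC50 derived from percentage of viable cells after treatment relative to untreated controls, cell killing taken as a measure of Bcl-2 inhibition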
Type: cell-based, human
assay.conditions: Homo sapiens, RS4-11, 48 h, 50,000 cells per well, 10% human serum, 48 hours; read-out: RS4; 11 EC50 Values
observable: EC50 (nM)

[[record]]
smiles_data = "CC1(C)CCC(CN2CCN(c3ccc(C(=O)NS(=O)(=O)c4cnc(OCC5CCOCC5)c(F)c4)c(Oc4cnc5[nH]ccc5c4)c3)CC2)=C(c2ccc(Cl)cc2)C1"
target_desc = "RS4;11 cells"
observable = "EC50"
meas_value = 287

[[record]]
smiles_data = "CC1(C)CCC(CN2CCN(c3ccc(C(=O)NS(=O)(=O)c4ccc(N[C@H]5CCCN(C6CCOCC6)C5)c([N+](=O)[O-])c4)c(Oc4cnc5[nH]ccc5c4)c3)CC2)=C(c2ccc(Cl)cc2)C1"
target_desc = "RS4;11 cells"
observable = "EC50"
meas_value = 53.6

[[record]]
smiles_data = "COCCOCCN1CC[C@@H](Nc2ccc(S(=O)(=O)NC(=O)c3ccc(N4CCN(CC5=C(c6ccc(Cl)cc6)CC(C)(C)CC5)CC4)cc3Oc3cnc4[nH]ccc4c3)cc2[N+](=O)[O-])C1"
target_desc = "RS4;11 cells"
observable = "EC50"
meas_value = 19.9

[[record]]
smiles_data = "CC1(C)CCC(CN2CCN(c3ccc(C(=O)NS(=O)(=O)c4cnc(OCC5(F)CCOCC5)c(F)c4)c(Oc4cnc5[nH]ccc5c4)c3)CC2)=C(c2ccc(Cl)cc2)C1"
target_desc = "RS4;11 cells"
observable = "EC50"
meas_value = 99.6

[[record]]
smiles_data = "CC1(C)CCC(CN2CCN(c3ccc(C(=O)NS(=O)(=O)c4ccc(NCC5CCOCC5)c(S(=O)(=O)C(F)(F)F)c4)c(Oc4ccc5[nH]ccc5c4)c3)CC2)=C(c2ccc(Cl)cc2)C1"
target_desc = "RS4;11 cells"
observable = "EC50"
meas_value = 1690

